Origin of the recorded values: ChEMBL document CHEMBL1614631

For each entry below, report its DNAUC value.
# assay_protocol: Dose normalised AUC in rat after po administration
# setup_conditions: in vivo
Report the value in kg·min/L with no unit label.

Prompt: Look up DNAUC for this compound: COCCc1ccc(OCC(O)CNC(C)C)cc1 (stereo unspecified) [METOPROLOL]
Response: 58

Prompt: Record: COc1nccc(-c2c(-c3ccc(F)cc3)ncn2C2CCNCC2)n1 [SB-242235]
Response: 37.61

Prompt: Record: CCn1cc(C(=O)O)c(=O)c2cc(F)c(N3CCN(C)CC3)cc21 [PEFLOXACIN]
Response: 67.2

Prompt: Record: CS(=O)(=O)Nc1ccc(F)c([C@@H](O)CN)c1 [NS-49]
Response: 33.3

Prompt: Record: COc1c(N2C[C@@H]3CCCN[C@@H]3C2)c(F)cc2c(=O)c(C(=O)O)cn(C3CC3)c12 [MOXIFLOXACIN]
Response: 18.35

Prompt: Record: CC(C)(C)S(=O)(=O)C[C@@H](Cc1ccccc1)C(=O)N[C@@H](Cc1cnc[nH]1)C(=O)N[C@@H](CC1CCCCC1)[C@@H](O)[C@@H](O)C1CC1 [REMIKIREN]
Response: 0.25

Prompt: Record: O=C1CN=C(c2ccccc2Cl)c2cc([N+](=O)[O-])ccc2N1 [CLONAZEPAM]
Response: 3.47

Prompt: Record: CC(C)N(CCC(C(N)=O)(c1ccccc1)c1ccccn1)C(C)C (stereo unspecified) [DISOPYRAMIDE]
Response: 6.07

Prompt: Record: CC(C(=O)O)c1ccc(-c2ccccc2)c(F)c1 (stereo unspecified) [FLURBIPROFEN]
Response: 1042.5

Prompt: Record: Cc1ncc2n1-c1ccc(Cl)cc1C(c1ccccc1F)=NC2 [MIDAZOLAM]
Response: 1.64

Prompt: Record: O=C(c1ccccc1)c1ccc2n1CCC2C(=O)O (stereo unspecified) [KETOROLAC]
Response: 285

---

# assay_protocol: Dose normalised AUC in human after po administration
# setup_conditions: in vivo
Label label 1 when DNAUC is at or above 80 kg·min/L; otherwise label label 0.

Prompt: Could you tell me if the measured DNAUC of N[C@@H]1[C@H]2CN(c3nc4c(cc3F)c(=O)c(C(=O)O)cn4-c3ccc(F)cc3F)C[C@@H]12 reaches 80 kg·min/L or more?
Response: label 1

Prompt: Record: NS(=O)(=O)Cc1noc2ccccc12 [ZONISAMIDE]
Response: label 1

Prompt: Record: Cc1ncc2n1-c1ccc(Cl)cc1C(c1ccccc1F)=NC2
Response: label 0

Prompt: Record: CC(C)NCC(O)COc1cccc2ccccc12 (configuration not stated)
Response: label 0

Prompt: Record: O=C(c1ccccc1)c1ccc2n1CCC2C(=O)O (configuration not stated)
Response: label 1

Prompt: Record: CS(=O)(=O)Nc1ccc(F)c([C@@H](O)CN)c1
Response: label 1

Prompt: Record: C#C[C@]1(O)CC[C@H]2[C@@H]3CCc4cc(O)ccc4[C@H]3CC[C@@]21C
Response: label 0

Prompt: Record: CC(=O)[C@H]1CC[C@H]2[C@@H]3CC[C@H]4C[C@](C)(O)CC[C@]4(C)[C@H]3CC[C@]12C
Response: label 0

Prompt: Record: CCC1(C)CC(=O)NC1=O (configuration not stated) [ETHOSUXIMIDE]
Response: label 1

Prompt: Record: CC[C@H]1OC(=O)[C@H](C)[C@@H](O[C@H]2C[C@@](C)(OC)[C@@H](O)[C@H](C)O2)[C@H](C)[C@@H](O[C@@H]2O[C@H](C)C[C@H](N(C)C)[C@H]2O)[C@](C)(O)C[C@@H](C)CN(C)[C@H](C)[C@@H](O)[C@]1(C)O
Response: label 0

Prompt: Record: COC(=O)C1=C(C)NC(C)=C(C(=O)OCCN(C)Cc2ccccc2)C1c1cccc([N+](=O)[O-])c1 (configuration not stated)
Response: label 0

Prompt: Record: O=C(O)c1cn(C2CC2)c2cc(N3CCNCC3)c(F)cc2c1=O
Response: label 0

Prompt: Record: O=C1CN=C(c2ccccc2Cl)c2cc([N+](=O)[O-])ccc2N1
Response: label 1

Prompt: Record: CC1COc2c(N3CCN(C)CC3)c(F)cc3c(=O)c(C(=O)O)cn1c23 (configuration not stated)
Response: label 1

Prompt: Record: Cc1cnc(NC(=O)C2=C(O)c3ccccc3S(=O)(=O)N2C)s1
Response: label 1

Prompt: Record: CC(C)n1c(/C=C/C(O)CC(O)CC(=O)O)c(-c2ccc(F)cc2)c2ccccc21 (configuration not stated)
Response: label 0
